# TEST_SYSTEM: human V2 receptor (Homo sapiens)
# Sequence (P30518 whole entry): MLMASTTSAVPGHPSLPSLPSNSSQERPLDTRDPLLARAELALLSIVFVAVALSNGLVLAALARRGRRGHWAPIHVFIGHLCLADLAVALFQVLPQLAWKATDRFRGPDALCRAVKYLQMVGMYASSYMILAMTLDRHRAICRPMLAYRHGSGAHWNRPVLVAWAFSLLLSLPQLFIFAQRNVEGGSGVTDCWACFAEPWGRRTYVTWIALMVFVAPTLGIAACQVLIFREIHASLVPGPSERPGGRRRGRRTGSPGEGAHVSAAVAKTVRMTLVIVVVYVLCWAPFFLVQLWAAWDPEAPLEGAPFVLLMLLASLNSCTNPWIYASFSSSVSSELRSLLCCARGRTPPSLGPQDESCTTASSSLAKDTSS
# TEST_METHOD_NOTES: Cellular in vitro assay for determining vasopressin receptor activity, V2 receptor cell line (CRE-luciferase)
# DETAILS: CHO cell line transfected with human V2 receptor; [Arg8]-vasopressin at EC50; compounds of the invention (Table 1A); read-out: IC50 hV2
ENDPOINT: IC50 (nM)

[[record]]
compound = "CC(O)c1nc(Cn2nc(-c3ccc(Cl)cc3)n(C[C@H](O)C(F)(F)F)c2=O)nn1-c1cc(F)cc(F)c1 (single isomer, unassigned) [Example 26]"
experimental_result = 3

[[record]]
compound = "CC(O)c1nc(Cn2nc(-c3ccc(Cl)cc3)n(C[C@H](O)C(F)(F)F)c2=O)nn1-c1cccc(C(F)(F)F)c1 (single isomer, unassigned) [Example 24]"
experimental_result = 2

[[record]]
compound = "COc1ccc(F)cc1-n1nc(Cn2nc(-c3ccc(Cl)cc3)n(C[C@H](O)C(F)(F)F)c2=O)nc1C(C)O (single isomer, unassigned) [Example 38]"
experimental_result = 0.9

